# switch fluorescence ratio per record follows
Tested on: ATP;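 further: ATP exposure 15 min at 22 °C before imaging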
ASSAY_NAME: switch fluorescence ratio, 500 uM ATP over buffer (Cy3 cluster intensity, sum of 5 cycles each) (fold (ratio)); higher = stronger signal-on switching upon ATP binding; sequences stand for … in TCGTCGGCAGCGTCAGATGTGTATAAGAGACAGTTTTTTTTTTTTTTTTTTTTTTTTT…TC
SETTINGS: aptamer strand: ATP DNA aptamer (quencher-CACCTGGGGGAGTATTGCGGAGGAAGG + anchor), 100 nM annealed; ATP concentration: 500 uM
Give the figure by itself; no unit, no explanation.

[[record]]
sequence_entry = "AGGGAAAGTT"
assay_readout = "switch fluorescence ratio"
result_value = 1.01

[[record]]
sequence_entry = "AGATTGAATT"
assay_readout = "switch fluorescence ratio"
result_value = 1.02

[[record]]
sequence_entry = "CAGTTTAAGG"
assay_readout = "switch fluorescence ratio"
result_value = 1.01

[[record]]
sequence_entry = "TCGAGATAGA"
assay_readout = "switch fluorescence ratio"
result_value = 1.1

[[record]]
sequence_entry = "AATTAATGGT"
assay_readout = "switch fluorescence ratio"
result_value = 0.978

[[record]]
sequence_entry = "GACTAGTGAA"
assay_readout = "switch fluorescence ratio"
result_value = 0.991

[[record]]
sequence_entry = "TTGGGGGGAG"
assay_readout = "switch fluorescence ratio"
result_value = 0.99

[[record]]
sequence_entry = "CCTGAGGTGT"
assay_readout = "switch fluorescence ratio"
result_value = 1.47


Hi! What's the reported switch fluorescence ratio for AGGTCTTGGG on ATP?
0.972

What is its switch fluorescence ratio for ATP? Entry: GCAAATGGAA
0.982

Notebook: pull reported switch fluorescence ratio for ATP, entry GGGAGGGATG
1.02

Return switch fluorescence ratio measured with ATP given this sequence: AACTTACTTT
1.13

Return switch fluorescence ratio measured with ATP given this sequence: TAAGAGAGAA
0.986

Quick check: switch fluorescence ratio on ATP, item TCGGAGGGGC ?
1.03

Find switch fluorescence ratio (ATP) for the entry AGGGGCAGTA
0.993

// fetch ATP switch fluorescence ratio for GCGCTTAGGT
0.983

----------
Test system: ATP;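 further: ATP exposure 15 min at 22 °C before imaging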
ASSAY_NAME: switch fluorescence ratio, 500 uM ATP over buffer (Cy3 cluster intensity, sum of 5 cycles each) (fold (ratio)); higher = stronger signal-on switching upon ATP binding; sequences stand for … in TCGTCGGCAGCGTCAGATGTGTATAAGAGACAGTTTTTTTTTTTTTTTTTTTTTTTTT…TC
SETTINGS: aptamer strand: ATP DNA aptamer (quencher-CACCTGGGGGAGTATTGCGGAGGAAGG + anchor), 100 nM annealed; ATP concentration: 500 uM
ASSAY_READOUT: switch fluorescence ratio
API note: the answer field is a bare number with no unit suffix.

[[record]]
sequence_entry = "GAGTGGGTAG"
result_value = 1.03

[[record]]
sequence_entry = "GGGGTGCGGG"
result_value = 0.99

[[record]]
sequence_entry = "GGTGAGGGAC"
result_value = 1.02

[[record]]
sequence_entry = "GGTGTTGGCT"
result_value = 1.02

[[record]]
sequence_entry = "AAAAATCGGT"
result_value = 0.996

[[record]]
sequence_entry = "CAGAACGGCA"
result_value = 1.09

[[record]]
sequence_entry = "TAGGAGGGT"
result_value = 1.03

[[record]]
sequence_entry = "TATACATGAG"
result_value = 1.03


Need switch fluorescence ratio, item AGAAGTTTTA
1.01

Which switch fluorescence ratio reading was recorded for the sequence AGAGGGGGGA ?
1.02

Tell me the measured switch fluorescence ratio of GAAGGAGTGC , please.
1.07

Which value of switch fluorescence ratio has been reported for CATTTCCTGA in the records?
1.02

Entry under review: TTTTTTGGAT . Reported switch fluorescence ratio?
1.01

What does the record list as switch fluorescence ratio for TATGGCCAGT ?
1.03

Name the reported switch fluorescence ratio value associated with the sequence TTAATTTAG
0.985

Consider the sequence shown here: AAGGCACTTT What is its recorded switch fluorescence ratio?
1.02

What value of measured switch fluorescence ratio is listed for GGGGCTTTGG ?
0.98

Reported switch fluorescence ratio, sequence AAATCGGCGG : ____
0.991

Query: switch fluorescence ratio; subject: TCGGCTTTTT
0.999

Need switch fluorescence ratio, item TAGCGGGGGA
1.04

Which switch fluorescence ratio value belongs to GGAGAGGGGG ?
0.982

What switch fluorescence ratio value was documented for this sequence, GCATGGTGGC ?
1.01

Consider the sequence shown here: AGCGAACGGG What is its recorded switch fluorescence ratio?
1.05

Entry under review: TTTTTTTTAT . Reported switch fluorescence ratio?
1

So what's the measured switch fluorescence ratio for this one? ATGGGGGGAG
0.997

Request the reported switch fluorescence ratio associated with TTGTTAATTG
1.01

----------
Tested on: ATP;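 further: ATP exposure 15 min at 22 °C before imaging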
ASSAY_NAME: switch fluorescence ratio, 500 uM ATP over buffer (Cy3 cluster intensity, sum of 5 cycles each) (fold (ratio)); higher = stronger signal-on switching upon ATP binding; sequences stand for … in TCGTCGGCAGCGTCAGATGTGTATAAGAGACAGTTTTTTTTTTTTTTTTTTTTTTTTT…TC
SETTINGS: aptamer strand: ATP DNA aptamer (quencher-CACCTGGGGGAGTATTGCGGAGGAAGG + anchor), 100 nM annealed; ATP concentration: 500 uM
ASSAY_READOUT: switch fluorescence ratio
Hey, just send me the number, nothing else.

[[record]]
sequence_entry = "CCAATTGAAG"
assay_readout = "switch fluorescence ratio"
result_value = 1.02

[[record]]
sequence_entry = "GCGCTAAGTT"
assay_readout = "switch fluorescence ratio"
result_value = 0.984

[[record]]
sequence_entry = "CGTTGCTCCC"
assay_readout = "switch fluorescence ratio"
result_value = 1.3

[[record]]
sequence_entry = "TTACTCATTT"
assay_readout = "switch fluorescence ratio"
result_value = 1.02

[[record]]
sequence_entry = "CTTGGGATCA"
assay_readout = "switch fluorescence ratio"
result_value = 0.971

[[record]]
sequence_entry = "GTGTTTTGTC"
assay_readout = "switch fluorescence ratio"
result_value = 1.02

[[record]]
sequence_entry = "GATAGGGTAA"
assay_readout = "switch fluorescence ratio"
result_value = 0.988

[[record]]
sequence_entry = "TGGGAGTTAG"
assay_readout = "switch fluorescence ratio"
result_value = 0.943


So what's the measured switch fluorescence ratio for this one? ATGGGTACTG
0.963

Quick one: switch fluorescence ratio of ATTTTAGCTG ?
1.01

----------
Below, each entry is listed alongside its reported switch fluorescence ratio.
System: ATP;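 further: ATP exposure 15 min at 22 °C before imaging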
ASSAY_NAME: switch fluorescence ratio, 500 uM ATP over buffer (Cy3 cluster intensity, sum of 5 cycles each) (fold (ratio)); higher = stronger signal-on switching upon ATP binding; sequences stand for … in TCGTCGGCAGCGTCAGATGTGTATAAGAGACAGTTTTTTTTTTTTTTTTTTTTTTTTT…TC
SETTINGS: aptamer strand: ATP DNA aptamer (quencher-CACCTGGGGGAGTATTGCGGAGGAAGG + anchor), 100 nM annealed; ATP concentration: 500 uM
No unit in the answer, please; the number alone is enough.

[[record]]
sequence_entry = "CGGGGCACCG"
tgt = "ATP"
assay_readout = "switch fluorescence ratio"
result_value = 0.987

[[record]]
sequence_entry = "TTTTTAAA"
tgt = "ATP"
assay_readout = "switch fluorescence ratio"
result_value = 0.988

[[record]]
sequence_entry = "ATGGGTTGAG"
tgt = "ATP"
assay_readout = "switch fluorescence ratio"
result_value = 1.01

[[record]]
sequence_entry = "AAAGTTCGTA"
tgt = "ATP"
assay_readout = "switch fluorescence ratio"
result_value = 0.985

[[record]]
sequence_entry = "TTAGCGAGGC"
tgt = "ATP"
assay_readout = "switch fluorescence ratio"
result_value = 2.13

[[record]]
sequence_entry = "TGTGTGGCGC"
tgt = "ATP"
assay_readout = "switch fluorescence ratio"
result_value = 1.02

[[record]]
sequence_entry = "CAGCGGGTCT"
tgt = "ATP"
assay_readout = "switch fluorescence ratio"
result_value = 1.04

[[record]]
sequence_entry = "TAATGTTGCA"
tgt = "ATP"
assay_readout = "switch fluorescence ratio"
result_value = 1.02


What measured switch fluorescence ratio goes with AGGGATTTGG ?
0.987

Report switch fluorescence ratio for CCTCCCTTTT please.
2.2

Given GAGTACCAGG , state its recorded switch fluorescence ratio.
1.25

Recorded switch fluorescence ratio of AAAAGTAATT , please.
0.985

Record request: switch fluorescence ratio value, item AGGGCTACAG
1.01

switch fluorescence ratio for TAGGGGTACA ?
1.03

For the sequence AGCATCATTT , what switch fluorescence ratio is on record?
0.971

# switch fluorescence ratio lookup, item AAGTTACCTG
1.09

Consider the sequence shown here: GCGTTATATT What is its recorded switch fluorescence ratio?
1

----------
Entries annotated with measured switch fluorescence ratio
Tested on: ATP;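 further: ATP exposure 15 min at 22 °C before imaging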
ASSAY_NAME: switch fluorescence ratio, 500 uM ATP over buffer (Cy3 cluster intensity, sum of 5 cycles each) (fold (ratio)); higher = stronger signal-on switching upon ATP binding; sequences stand for … in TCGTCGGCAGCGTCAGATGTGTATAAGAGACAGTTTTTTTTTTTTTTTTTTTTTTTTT…TC
SETTINGS: aptamer strand: ATP DNA aptamer (quencher-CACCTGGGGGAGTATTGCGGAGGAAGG + anchor), 100 nM annealed; ATP concentration: 500 uM
Respond using a number only.

[[record]]
sequence_entry = "GGTGAGCCTT"
tgt = "ATP"
result_value = 0.987

[[record]]
sequence_entry = "TTATTGGGTC"
tgt = "ATP"
result_value = 1

[[record]]
sequence_entry = "TGCCGCTTCT"
tgt = "ATP"
result_value = 1.02

[[record]]
sequence_entry = "GAGTATCTTT"
tgt = "ATP"
result_value = 0.998

[[record]]
sequence_entry = "TTTTACGATG"
tgt = "ATP"
result_value = 1

[[record]]
sequence_entry = "CGGTGACGCG"
tgt = "ATP"
result_value = 0.982


From here, focus on the item given below.
Quick one: switch fluorescence ratio of GTATTATGGG ?
1
